- PROCEDURE_TEXT: chemical genetic growth profiling, strain panel (AID 1159580);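 also: tested at 20 µM; growth read once vehicle control cultures reached saturation at 30 °C; 1 = growth at the plate median or of vehicle wells; lower values mean less growth of the strain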
- RUN_CONDITIONS: S. cerevisiae deletion strains, growth OD, locus YJR075W, strain HOC1, active compounds read low
The whole screen tested about 5,500 compounds, of which about 2,000 (36%) were called active. Another 18% or so got no clear call; they are omitted. This is one part of the list.
READOUT: normalized growth
Please respond with just the number, no unit label.

> print(dat)
                                   molecule  number
1  CCC[C@H]1CC2=C(C[C@@H](CC)CC3=C1C(=O)OC3=O)C(=O)OC2=O    1.01
2            CN1CCC(c2c[nH]c3ccc(O)cc23)CC1    1.01
3  COc1cccc(C2C3=C(CC(C)(C)CC3=O)OC3=C2C(=O)CC(C)(C)C3)c1O       1
4  OC[C@@H](O)[C@@H](O[C@@H]1O[C@H](CO)[C@@H](O)[C@H](O)[C@H]1O)[C@H](O)[C@@H](O)CO    1.01
5                        CN1C2CCC1CC(=NO)C2   0.984

Prompt: If you can, please state the reported normalized growth value of `C=C[C@](C)(O)CCC=C(C)C` .
Completion: 1

Prompt: If you can, please state the reported normalized growth value of `CC(C)c1ccc(NC(=S)NC(=O)c2ccc(C(F)(F)F)cc2)cc1` .
Completion: 1

Prompt: If you can, please state the reported normalized growth value of `O=C(NC(=S)Nc1ccccn1)c1ccccc1` .
Completion: 0.988

---

Entries and their normalized growth
- PROCEDURE_TEXT: chemical genetic growth profiling, strain panel (AID 1159580)
- RUN_CONDITIONS: S. cerevisiae deletion strains, growth OD, locus YLR058C, strain SHM2 (second series), active compounds read low
The campaign covered roughly 5,500 compounds. About 2,000 (36%) were called active. Not shown: some 18% with an inconclusive outcome. The list shows a part of the results.
Please respond with just the number, no unit label.

# count of solved cases: 4
> print(dat)
                                   molecule  number
1  O=C(COC(=O)c1ccccc1Nc1ccccc1)c1ccc(Cl)cc1   0.992
2  COc1ccc(-c2c(C)nc3ccc(Cl)cc3c2-c2ccccc2)cc1OC   0.986
3           c1ccc2c(c1)CCc1c-2[nH]c2ccccc12   0.827
4        O=C(/C=N\Nc1ccccc1)Nc1ccccc1C(=O)O    0.97

Now take the following molecule into account.
Prompt: If you can, please state the reported normalized growth value of `Cc1cc(C)c(I)c(C)c1` .
Completion: 1.02

---

- PROCEDURE_TEXT: chemical genetic growth profiling, strain panel (AID 1159580);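 also: tested at 20 µM; growth read once vehicle control cultures reached saturation at 30 °C; 1 = growth at the plate median or of vehicle wells; lower values mean less growth of the strain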
- RUN_CONDITIONS: S. cerevisiae deletion strains, growth OD, locus YOR061W, strain CKA2, active compounds read low
The whole screen tested about 5,500 compounds, of which about 2,000 (36%) were called active. Inconclusive results (about 18%) are left out. The list shows a part of the results.
READOUT: normalized growth

# count of solved cases: 3
> print(dat)
                                   molecule            result
1  COc1ccccc1OCCNCC(O)COc1cccc2[nH]c3ccccc3c12 (configuration not stated)   1.01 (inactive)
2       CC(C)c1ccc(NC(=S)NC(=O)c2ccccc2)cc1  0.904 (inactive)
3  CCCc1c(C(=O)NNc2cccc(Cl)c2)cnn1-c1ccccc1  0.963 (inactive)

Prompt: If you can, please state the reported normalized growth value of `NCCNC(=O)c1ccc(Cl)cc1` .
Completion: 0.992 (inactive)

Prompt: If you can, please state the reported normalized growth value of CC(=O)c1c(O)c(C)c(O)c2c1OC1=CC(=O)C(C(C)=O)C(=O)C12C (configuration not stated) .
Completion: 1.02 (inactive)

Prompt: If you can, please state the reported normalized growth value of `NC[C@H](O)c1ccc(O)c(O)c1` .
Completion: 1.01 (inactive)

Prompt: If you can, please state the reported normalized growth value of `N#CC(C#N)=C/C=C(/Sc1nc2ccccc2s1)c1ccc(Br)cc1` .
Completion: 0.174 (active)

Prompt: If you can, please state the reported normalized growth value of `O=C(NCCSCc1cccc(C(F)(F)F)c1)Nc1cccc(C(F)(F)F)c1` .
Completion: 0.986 (inactive)

Prompt: If you can, please state the reported normalized growth value of C[C@H]1[C@H]2CCC3C4CC=C5C[C@@H](N(C)C)CC[C@]5(C)C4CC[C@@]32CN1C (some centres not stated) .
Completion: 0.96 (inactive)

Prompt: If you can, please state the reported normalized growth value of `C[n+]1cccc(C(=O)[O-])c1` .
Completion: 1.02 (inactive)

Prompt: If you can, please state the reported normalized growth value of `O=C(NCCSCc1ccco1)Nc1cc(Cl)cc(Cl)c1` .
Completion: 0.9 (inactive)

Prompt: If you can, please state the reported normalized growth value of `Cc1occc(=O)c1/C=C/O` .
Completion: 1.01 (inactive)

Prompt: If you can, please state the reported normalized growth value of CC(C)(C)NCC(O)c1ccccc1Cl (configuration not stated) .
Completion: 0.969 (inactive)

Prompt: If you can, please state the reported normalized growth value of NCC(O)c1ccc(O)cc1 (configuration not stated) .
Completion: 0.991 (inactive)

Prompt: If you can, please state the reported normalized growth value of `Nc1ccc(S(=O)(=O)Nc2ccccn2)cc1` .
Completion: 1.01 (inactive)

Prompt: If you can, please state the reported normalized growth value of CC(C)NCC(O)c1ccc2ccccc2c1 (configuration not stated) .
Completion: 1.01 (inactive)

Prompt: If you can, please state the reported normalized growth value of `CCCc1occc(=O)c1/C=C/O` .
Completion: 0.998 (inactive)

---

- PROCEDURE_TEXT: chemical genetic growth profiling, strain panel (AID 1159580);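 also: tested at 20 µM; growth read once vehicle control cultures reached saturation at 30 °C; 1 = growth at the plate median or of vehicle wells; lower values mean less growth of the strain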
- RUN_CONDITIONS: S. cerevisiae deletion strains, growth OD, locus YBL061C, strain skt5, active compounds read low
The campaign covered roughly 5,500 compounds. About 2,000 (36%) were called active. Roughly 18% stayed inconclusive and do not appear here. The list shows a part of the results.
Entries and their normalized growth

# count of solved cases: 5
COMPOUND	normalized growth
CC(=O)Oc1ccc(Cl)c2cccnc12	0.0591 (active)
O=C(O)C1=CCNCC1	1.01 (inactive)
Nc1ccc(C(=O)NCC(=O)O)cc1	1.01 (inactive)
C1CCN2CC3CC(CN4CCCCC34)C2C1 (centres undefined)	1.02 (inactive)
CCCCC(CC)CN1CN(CC(CC)CCCC)CC(C)(N)C1 (centres undefined)	0.0552 (active)

Prompt: If you can, please state the reported normalized growth value of Cc1c(O)c(O)cc2c1CC=C1[C@@]2(C)CC[C@@]2(C)C3C[C@](C)(C(=O)O)CC[C@]3(C)CC[C@]12C (some centres undefined) .
Completion: 0.533 (active)

Prompt: If you can, please state the reported normalized growth value of `Cc1occc(=O)c1O` .
Completion: 0.969 (inactive)

Prompt: If you can, please state the reported normalized growth value of `COc1c2c(cc3c1OCO3)CCN(C)C2` .
Completion: 1.02 (inactive)

Prompt: If you can, please state the reported normalized growth value of `CCCCC1=NC2(CCCC2)C(=O)N1Cc1ccc(-c2ccccc2-c2nn[nH]n2)cc1` .
Completion: 1.02 (inactive)

Prompt: If you can, please state the reported normalized growth value of O=C1O[C@H](C(O)CO)C(O)=C1O (some centres undefined) .
Completion: 0.984 (inactive)

Prompt: If you can, please state the reported normalized growth value of `CCOC(=O)c1oc2c(OC)c(O)cc(O)c2c(=O)c1-c1cc(OC)c(OC)c(OC)c1` .
Completion: 0.976 (inactive)

Prompt: If you can, please state the reported normalized growth value of O=C(OC1Cc2c(O)cc(O)cc2OC1c1cc(O)c(O)c(O)c1-c1c(C2Oc3cc(O)cc(O)c3CC2OC(=O)c2cc(O)c(O)c(O)c2)cc(O)c(O)c1O)c1cc(O)c(O)c(O)c1 (centres undefined) .
Completion: 0.982 (inactive)

Prompt: If you can, please state the reported normalized growth value of `Oc1c(I)cc(Cl)c2cccnc12` .
Completion: 0.0782 (active)

---

Entries and their normalized growth
- PROCEDURE_TEXT: chemical genetic growth profiling, strain panel (AID 1159580);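 also: tested at 20 µM; growth read once vehicle control cultures reached saturation at 30 °C; 1 = growth at the plate median or of vehicle wells; lower values mean less growth of the strain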
- RUN_CONDITIONS: S. cerevisiae deletion strains, growth OD, locus YLR262C, strain YPT6 (second series), active compounds read low
About 2,000 (36%) of roughly 5,500 compounds were called active. Inconclusive results (about 18%) are left out. The list shows a part of the results.
Please respond with just the number, no unit label.

# count of solved cases: 4
> print(dat)
                                   compound            readout  number
1  CCCC(C)C1(CC)C(=O)NC(=O)NC1=O (stereo not given)  normalized growth    1.02
2                  Nc1ccc(C(=O)NCC(=O)O)cc1  normalized growth    1.02
3  CCCC1O[C@@H]2CC3C4CCC5=CC(=O)C=CC5(C)C4[C@@H](O)CC3(C)[C@]2(C(=O)CO)O1 (stereo not given in full)  normalized growth       1
4  C1CCN2CC3CC(CN4CCCCC34)C2C1 (stereo not given)  normalized growth       1

Prompt: If you can, please state the reported normalized growth value of O=C1CCCC2C3CC(CN12)[C@@H]1CCCCN1C3 (stereo not given in full) .
Completion: 0.986
